TARGET_UNDER_TEST: TEAD1 (Homo sapiens, UniProt P28347)
Sequence (P28347 whole entry): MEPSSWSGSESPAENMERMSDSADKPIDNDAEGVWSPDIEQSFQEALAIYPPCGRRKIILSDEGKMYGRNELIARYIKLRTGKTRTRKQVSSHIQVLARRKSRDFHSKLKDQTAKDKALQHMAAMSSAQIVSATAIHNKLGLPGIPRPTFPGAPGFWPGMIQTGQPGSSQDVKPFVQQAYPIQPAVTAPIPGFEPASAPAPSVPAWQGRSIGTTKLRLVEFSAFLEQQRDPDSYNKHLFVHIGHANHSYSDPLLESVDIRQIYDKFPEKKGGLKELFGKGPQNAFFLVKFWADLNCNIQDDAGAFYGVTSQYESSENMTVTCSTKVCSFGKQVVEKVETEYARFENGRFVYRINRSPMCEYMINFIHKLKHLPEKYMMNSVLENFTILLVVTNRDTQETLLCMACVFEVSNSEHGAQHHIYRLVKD
TEST_DESCRIPTION: Binary complex formation of TEAD1 to TEAD binders, biochemical assays
TEST_CONTEXT: data not shown
MEASURE_NAME: pIC50
Answer as the number alone; pIC50 is minus log10 of concentration in mol/L.

Incoming: Dear colleague, I am looking for the recorded pIC50 of the following compound: O=C(CCl)c1ccccc1Nc1cccc(C(F)(F)F)c1 [TED-347]
Outgoing: 6.47

* * *

TARGET_UNDER_TEST: UniProt:P28347
TEST_DESCRIPTION: Binary complex formation of TEAD1 to TEAD binders, SPR
TEST_CONTEXT: data not shown
MEASURE_NAME: Kd (nM)
The response must be a number in nM with no trailing unit.

Incoming: Field: Kd (UniProt:P28347). Entry: O=C(CCl)c1ccccc1Nc1cccc(C(F)(F)F)c1 [TED-347]
Outgoing: 1400
